Target: human TRPV3 (Homo sapiens)
Sequence (Q8NET8 1-790): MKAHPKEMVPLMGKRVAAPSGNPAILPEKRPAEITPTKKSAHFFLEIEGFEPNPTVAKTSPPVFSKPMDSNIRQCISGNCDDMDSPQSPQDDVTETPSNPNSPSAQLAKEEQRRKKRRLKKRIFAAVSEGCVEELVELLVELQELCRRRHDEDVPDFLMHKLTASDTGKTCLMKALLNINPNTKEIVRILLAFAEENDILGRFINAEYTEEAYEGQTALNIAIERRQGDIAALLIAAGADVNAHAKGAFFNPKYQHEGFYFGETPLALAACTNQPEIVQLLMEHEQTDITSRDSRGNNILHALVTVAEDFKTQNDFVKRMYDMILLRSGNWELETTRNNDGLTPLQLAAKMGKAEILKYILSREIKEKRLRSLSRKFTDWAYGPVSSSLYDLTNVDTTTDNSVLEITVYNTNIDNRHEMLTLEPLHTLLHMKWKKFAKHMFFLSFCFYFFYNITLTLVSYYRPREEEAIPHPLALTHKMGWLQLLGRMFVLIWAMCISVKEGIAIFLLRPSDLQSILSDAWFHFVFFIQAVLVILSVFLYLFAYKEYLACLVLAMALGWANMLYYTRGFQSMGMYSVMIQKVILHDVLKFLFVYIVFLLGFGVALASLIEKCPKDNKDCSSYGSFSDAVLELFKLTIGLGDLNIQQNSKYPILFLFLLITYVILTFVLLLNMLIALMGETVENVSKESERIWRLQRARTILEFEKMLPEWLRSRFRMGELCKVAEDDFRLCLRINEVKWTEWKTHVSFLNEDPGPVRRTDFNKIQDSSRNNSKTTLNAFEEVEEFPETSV
Experiment: Calcium flux assay (FLIPR TETRA), recombinant HEK293 cells expressing TRPV3, 2-APB response
Details: 2-APB at its EC80
valueKind: IC50

* COc1ncnc(OC)c1C(=O)Nc1nc(C(F)(F)F)c(C2(O)CCC2)s1 [Example 119] | > 1000 nM
* COc1ncnc(OC)c1C(=O)Nc1nc(C(F)(F)F)c(C2CCOCC2)s1 [Example 39] | 50 to 100 nM
* COc1ncnc(OC)c1C(=O)Nc1nc(C(F)(F)F)c(CN2CCC(F)CC2)s1 [Example 53] | < 50 nM
* COc1ncnc(OC)c1C(=O)Nc1nc(C(F)(F)F)c(C(=O)c2ccc(F)cn2)s1 [Example 131] | < 50 nM
